# Experimental Target: BaF3 BRAF-KIAA1549 fusion cells (Homo sapiens, UniProt P15056)
# Construct: The BRAF-KIAA1549 fusion mutant was subcloned into pMXs-IRES-Blasticidin (RTV-016, Cell Biolabs, San Diego, CA); fused on or other part: Q9HCM3 (UPF0606 protein KIAA1549)
# Sequence (P15056 whole entry, change not shown, the tested form may be a part): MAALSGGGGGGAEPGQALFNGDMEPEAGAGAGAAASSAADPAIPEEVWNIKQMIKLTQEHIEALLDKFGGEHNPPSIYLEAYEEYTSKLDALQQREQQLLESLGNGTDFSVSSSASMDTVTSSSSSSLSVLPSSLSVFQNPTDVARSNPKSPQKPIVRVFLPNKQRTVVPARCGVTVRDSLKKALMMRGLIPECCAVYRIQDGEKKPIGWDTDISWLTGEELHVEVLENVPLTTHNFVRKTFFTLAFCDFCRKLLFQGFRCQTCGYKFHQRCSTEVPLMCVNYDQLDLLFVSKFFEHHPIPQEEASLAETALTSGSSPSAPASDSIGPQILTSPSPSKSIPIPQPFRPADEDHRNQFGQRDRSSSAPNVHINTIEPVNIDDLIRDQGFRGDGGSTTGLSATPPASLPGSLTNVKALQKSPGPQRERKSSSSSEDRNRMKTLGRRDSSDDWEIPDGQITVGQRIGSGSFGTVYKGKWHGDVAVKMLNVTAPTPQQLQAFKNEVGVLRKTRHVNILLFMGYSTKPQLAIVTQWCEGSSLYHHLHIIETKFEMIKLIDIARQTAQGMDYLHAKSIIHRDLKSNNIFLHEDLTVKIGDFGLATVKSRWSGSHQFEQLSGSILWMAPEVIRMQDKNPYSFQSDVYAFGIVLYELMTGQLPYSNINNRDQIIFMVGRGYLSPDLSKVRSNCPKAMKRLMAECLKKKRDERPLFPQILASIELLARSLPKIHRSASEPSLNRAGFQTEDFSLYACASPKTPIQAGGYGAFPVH
# Assay Remarks: BaF3 BRAF-KIAA1549 fusion cell proliferation assay (CellTiterGlo)
# Format: cell-based
# Reported Conditions: 96 hours incubation, potency code
Measured GI50 values are reported for all entries that follow.

(Q) // fetch GI50 given entry `Cc1ccc(NC(=O)c2ccc(Cl)c(C3(C#N)CC3)c2)cc1Nc1ncccc1-c1ncnc2[nH]cnc12`
(A) 20 to 100 nM

(Q) // fetch GI50 given entry Cc1ccc(NC(=O)C[C@H]2CCC[C@@H](C(F)(F)F)C2)cc1Nc1ncccc1-c1ncnc2[nH]cnc12 (single isomer, unassigned)
(A) < 20 nM

(Q) // fetch GI50 given entry `CCc1cnc(C(=O)Nc2ccc(C)c(Nc3ncccc3-c3ncnc4[nH]cnc34)c2)cc1C(F)(F)F`
(A) 20 to 100 nM

(Q) // fetch GI50 given entry Cc1ccc(NC(=O)C[C@@H]2CCO[C@H](C(F)(F)F)C2)cc1Nc1ncccc1-c1ncnc2[nH]cnc12 (single isomer, unassigned)
(A) 20 to 100 nM

(Q) // fetch GI50 given entry `Cc1ccc(NC(=O)c2cnc(C(F)(F)F)c(C#N)c2)cc1Nc1ncccc1-c1ncnc2[nH]cnc12`
(A) 20 to 100 nM

(Q) // fetch GI50 given entry Cc1ccc(NC(=O)C[C@@H]2CCC[C@H](C(F)(F)F)C2)cc1Nc1ncccc1-c1ncnc2[nH]cnc12 (single isomer, unassigned)
(A) < 20 nM

---

# Experimental Target: BaF3 BRAF-KIAA1549 fusion cells (Homo sapiens, UniProt P15056)
# Construct: The BRAF-KIAA1549 fusion mutant was subcloned into pMXs-IRES-Blasticidin (RTV-016, Cell Biolabs, San Diego, CA); fused on or other part: Q9HCM3 (UPF0606 protein KIAA1549)
# Assay Remarks: BaF3 BRAF-KIAA1549 fusion cell proliferation assay (CellTiterGlo)
# Type: cell-based
# Reported Conditions: 96 hours incubation, potency code
# Experimental: Retroviral Production: The BRAF-KIAA1549 fusion mutant was subcloned into pMXs-IRES-Blasticidin (RTV-016, Cell Biolabs, San Diego, CA). Retrovirus was produced by transfection of HEK 293T cells with the retroviral BRAF mutant expression vector pMXs-IRES-Blasticidin (RTV-016, Cell Biolabs), pCMV-Gag-Pol vector and pCMV-VSV-G-Envelope vector. Briefly, HEK 293T cells were plated in Poly-D-lysine coated 6-well plate (2.5×10^5 cells per well) and incubated overnight. […]
Measured GI50 values are reported for all entries that follow.

[
  {
    "Compound": "Cc1ncc(NC(=O)c2ccnc(C3(C#N)CC3)c2)cc1Nc1ncccc1-c1ncnc2[nH]cnc12 [Compound I-54]",
    "Experimental Target": "BaF3 BRAF-KIAA1549 fusion cells (Homo sapiens, UniProt P15056)",
    "Property Name": "GI50",
    "Measured": "0.02 to 0.1 µM"
  }
]

Alright, here's another compound for you.
(Q) // fetch GI50 given entry Cc1ccc(NC(=O)c2cccc(N(C)C)c2)cc1Nc1ncccc1-c1ncnc2[nH]cnc12 [Compound I-80]
(A) < 0.02 µM
